test system: EKVX NSCLC; experiment: NCI tumour cell line growth inhibition, 48 h
Reported values of TGI for individual entries

> print(dat)
                                   compound  measured.attribute    result
1  O=S(=O)(O)c1ccc(N=Nc2ccc(N=Nc3c(O)ccc4ccc(S(=O)(=O)O)cc34)cc2)cc1                 TGI  > 100 µM
2  CCCCN(C)CC(C(C)=O)C(c1ccccc1)c1c(O)c2ccccc2oc1=O (stereo not drawn)                 TGI  > 100 µM

Next up:
Problem: Recorded TGI of `CCSC1=N/C(=C\c2ccco2)C(Nc2ccc(C)cc2)=N1` , please.
Result: > 100 µM

---

test system: SK-OV-3 ovarian; assay: NCI tumour cell line growth inhibition, 48 h
Reported values of TGI for individual entries

Problem: Recorded TGI of CS(=O)(=O)c1ccc(C(=O)O[C@@H]2C(=O)N3CC[C@H]4OC(O)[C@@H]2[C@H]43)cc1 (stereo partly drawn) , please.
Result: > 100 µM

Problem: Here is the next compound: `CC[C@H](C)[C@H](NC(=O)c1ncccn1)C(=O)N(C)[C@H](C[C@@H](OC(C)=O)c1nc(C(=O)N[C@@H](Cc2ccccc2)C[C@H](C)C(=O)OC)cs1)C(C)C`
Result: > 25 µM

Problem: Here is the next compound: `CCCCCCCCCCNC(=S)OC`
Result: > 100 µM

---

Reported values of TGI for individual entries
test system: SNB-75 CNS; test: NCI tumour cell line growth inhibition, 48 h

Below are worked cases with known answers.
> print(dat)
                  compound.structure.string    result
1                        CCCCCCCCCCNC(=S)OC  > 100 µM
2  O=C(O)c1nn(-c2ccc(Cl)cc2)c2c1C(=O)c1ccccc1C2=O   62.3 µM

Next up:
Problem: Recorded TGI of `CCOC(=O)NC(=O)c1cn(C2CCCCC2)c(=O)n(C)c1=O` , please.
Result: > 100 µM

---

Reported values of TGI for individual entries
tested on: LOX IMVI melanoma; experiment: NCI tumour cell line growth inhibition, 48 h

> print(dat)
                                   molecule    result
1  O=C(N/N=C/c1ccc([N+](=O)[O-])cc1)c1ccccc1Nc1ccnc(C(F)(F)F)c1  > 100 µM

Problem: API: value(readout= TGI, system= LOX IMVI melanoma, query= O=C(O)C(Cc1ccccc1)N=Cc1nc(-c2ccccc2)oc1O (stereo not given) )
Result: > 100 µM

Problem: Here is the next molecule: `COc1ccc2cc(C(=O)N3CCC([C@@H](C)C(=O)NCc4ccc5c(c4)OCO5)CC3)[nH]c2c1`
Result: > 100 µM

Problem: Here is the next molecule: `Brc1ccc2nc(-c3cccs3)nc(N3CCN(c4ccccc4)CC3)c2c1`
Result: > 100 µM

Problem: Here is the next molecule: `COc1cc(OCCCN2CCCC2)ccc1Nc1ncc(Cl)c(Nc2ccccc2P(C)(C)=O)n1`
Result: 4.4 µM

---

Reported values of TGI for individual entries
tested on: MDA-MB-231 breast; experiment: NCI tumour cell line growth inhibition, 48 h

> print(dat)
                                   compound    result
1  COc1ccc(CC2Cc3ccccc3CC(=O)N2)cc1OC (stereo not given)  > 100 µM
2  O=C(O)CN1CCN2CCCCCCCCN(CC1)CCN(CC(=O)O)CC2  > 100 µM
3  C[C@H](CCC(=O)O)[C@H]1CC[C@H]2[C@@H]3[C@H](O)[C@H](O)[C@@H]4C[C@H](O)CC[C@]4(C)[C@H]3CC[C@]12C  > 100 µM
4   COc1ccc2c(c1)c1ccc3c(c1n2C)C(=O)C=CC3=O   12.1 µM

Next up:
Problem: Recorded TGI of `CC(C)(C)c1cc[n+](C[n+]2ccc(C(C)(C)C)cc2)cc1` , please.
Result: > 100 µM

---

Reported values of TGI for individual entries
tested on: SK-MEL-2 melanoma; experiment: NCI tumour cell line growth inhibition, 48 h

molecule	TGI
CCN(CC)CCOCCOCC1(c2ccc(Cl)c(Cl)c2)CCCCC1	28.6 µM
COc1cccc(/C=C2\N=C(Cl)OC2=O)c1O	> 100 µM
Cc1ccc2c(ccc3ncc(CNc4ccc(NS(C)(=O)=O)cc4)c32)[nH]1	38.5 µM
CCOP(=O)(OCC)/C(=C\n1ccc(=O)[nH]c1=S)C(=O)OC	> 100 µM
Cc1cn(C(CO)OC(CO)CN(O)C2C3CC4CC(C3)CC2C4)c(=O)[nH]c1=O (stereo not drawn)	> 100 µM

Problem: Recorded TGI of C=C(C)[C@@]12C[C@H](OC(=O)[C@H](O)[C@@H](NC(=O)c3ccccc3)c3ccccc3)C(C)=C1[C@@H](OC(C)=O)C(=O)[C@@]1(C)C([C@@H]2OC(=O)c2cc(F)cc(F)c2)C2(OC(C)=O)CO[C@@H]2C[C@@H]1O (stereo partly drawn) , please.
Result: 2.28 µM

Problem: Here is the next molecule: CS(=O)(=O)c1ccc(C(=O)O[C@@H]2C(=O)N3CC[C@H]4OC(O)[C@@H]2[C@H]43)cc1 (stereo partly drawn)
Result: > 100 µM

Problem: Here is the next molecule: `CCOC(=O)c1ccc(NCc2ccc3nc(OC)c(OC)nc3c2)cc1`
Result: > 100 µM

Problem: Here is the next molecule: `Cc1ccc(F)c2[nH]c(-c3ccccc3)cc(=O)c12`
Result: > 100 µM

Problem: Here is the next molecule: COc1nc2ccc(Cl)c(C(O)c3ccccc3)c2nc1OC (stereo not drawn)
Result: 45 µM

Problem: Here is the next molecule: `CCSC1=N/C(=C\c2ccco2)C(Nc2ccc(C)cc2)=N1`
Result: > 100 µM

Problem: Here is the next molecule: `CN1/C(=C\N=O)C(C)(C)N(O)C1(C)C`
Result: > 100 µM

Problem: Here is the next molecule: `CC1(C)C(CBr)=[N+]([O-])C(C)(C)N1O`
Result: > 10 µM

---

system: SF-268 CNS; test: NCI tumour cell line growth inhibition, 48 h
measured_attribute: TGI

Problem: Recorded TGI of CCCC(=O)Nc1cc(/C=C/C(=O)N2CC(CCl)c3ccc([N+](=O)[O-])cc32)n(C)c1 (stereo unspecified) , please.
Result: > 100 µM

Problem: Here is the next compound: [N-]=[N+]=C1C(=O)C2CC3CC1CC2C3 (stereo unspecified)
Result: > 100 µM

Problem: Here is the next compound: `CCOP(=O)(OCC)/C(=C\n1ccc(=O)[nH]c1=S)C(=O)OC`
Result: > 100 µM

Problem: Here is the next compound: Cc1cn(C(CO)OC(CO)CN(O)C2C3CC4CC(C3)CC2C4)c(=O)[nH]c1=O (stereo unspecified)
Result: > 100 µM

Problem: Here is the next compound: `O=c1cc(-c2ccccc2)oc2c(O)c(O)ccc12`
Result: > 100 µM

Problem: Here is the next compound: CC(C)CC(C#CCCOC(=O)c1ccccc1)OC(=O)c1ccccc1 (stereo unspecified)
Result: > 10 µM

---

Reported values of TGI for individual entries
tested on: SF-268 CNS; assay: NCI tumour cell line growth inhibition, 48 h

Below are worked cases with known answers.
> print(dat)
                                   compound    result
1  CCc1cc2c(cc1C(=O)CCC(=O)O)CC1(C2)Cc2cc(CC)c(C(=O)CCC(=O)O)cc2C1  > 100 µM
2  COC(=O)Cc1cccc2c(=O)c(S(=O)(=O)NC(=O)Nc3ccc(Cl)cc3)c(-c3ccccc3)oc12  > 100 µM
3  CCC(CO)Nc1nc(NCc2ccccc2)c2n[nH]c(C(C)C)c2n1 (centres undefined)   26.4 µM

Next up:
Problem: Recorded TGI of `Cn1nc(-c2ccccc2)c2c(/C=C/c3ccc(F)cc3)onc2c1=O` , please.
Result: > 100 µM

---

test system: TK-10 renal; assay: NCI tumour cell line growth inhibition, 48 h
Reported values of TGI for individual entries

compound	TGI
CCCC[n+]1ccn(-c2nc3ccccc3n2C)c1	> 100 µM

Problem: Recorded TGI of COC1CC(O[C@H]2CC[C@@]3(C)C(=CCC4(O)C3CCC35C(=O)OC6(C)O[C@@]43CCC65)C2)OC(C)C1O (some centres undefined) , please.
Result: > 100 µM

Problem: Here is the next compound: CC12CP(=O)(O)CC1C2(Cl)Cl (centres undefined)
Result: > 100 µM

Problem: Here is the next compound: `Clc1ccc(-c2nnc(-c3nn(-c4ccccc4)c4nc5ccccc5nc34)o2)cc1`
Result: > 100 µM

Problem: Here is the next compound: OCC1CC2C=CCC(C2)C1 (centres undefined)
Result: > 100 µM

Problem: Here is the next compound: `CN1CCN(c2ccncc2S(=O)(=O)N2CCN(C)CC2)CC1`
Result: > 100 µM

Problem: Here is the next compound: CCCC(=O)Nc1cc(/C=C/C(=O)N2CC(CCl)c3ccc([N+](=O)[O-])cc32)n(C)c1 (centres undefined)
Result: > 100 µM

Problem: Here is the next compound: `COc1nc2c(c(=O)n1C)CN(c1ccccc1)C(=O)CN2C`
Result: > 100 µM

Problem: Here is the next compound: `CCSC1=N/C(=C\c2ccco2)C(Nc2ccc(C)cc2)=N1`
Result: > 100 µM

Problem: Here is the next compound: C=C1C2CC(OC(C)=O)C3(C)C(c4ccoc4)OC(=O)[C@@H](O)[C@]13OC1C[C@H](OC(C)=O)C(C)(C)[C@H](C(O)C(=O)OC)[C@]12C (some centres undefined)
Result: > 100 µM

Problem: Here is the next compound: Nc1ccc2nc3n(c2c1)C(c1c(F)cccc1F)SC3 (centres undefined)
Result: > 100 µM

Problem: Here is the next compound: `C[C@]1(c2nc3c(C(N)=O)cccc3[nH]2)CCCN1`
Result: > 100 µM

Problem: Here is the next compound: C=CCC1(CN(C)C)CC/C(=C\c2cc(OC)c(OC)c(OC)c2)C1=O (centres undefined)
Result: 36.4 µM

Problem: Here is the next compound: `O=C(Nc1ccc(Cl)cc1)c1cc(NCc2cc(O)ccc2O)ccc1O`
Result: 23.6 µM
